EXPERIMENT: Compound was tested in vitro for intrinsic neurotoxicity against murine HT-22 hippocampal cell cultures by MTT reduction assay
Parameters: species or system Hippocampus
EXPERIMENTAL_SETUP: mouse, HT-22 hippocampal cells; read-out: TC50 (the source's name)
MEASUREMENT_LABEL: CC50 (µM)
Please reply with the bare figure in µM and do not write the unit itself.

{"columns": ["STRUCTURE_NOTATION", "CC50, µM"],
 "data": [
  ["CC(C)CCNc1c(O)cc(O)c2c(=O)cc(-c3ccccc3)oc12", 12],
  ["C=CCNc1c(O)cc(O)c2c(=O)cc(-c3ccccc3)oc12", 18],
  ["CCCNc1c(O)cc(O)c2c(=O)cc(-c3ccccc3)oc12", 14],
  ["CCCNc1c(O)cc2oc(-c3ccccc3)cc(=O)c2c1O", 10]
]}

Short answer for `CC(C)CNc1c(O)cc(O)c2c(=O)cc(-c3ccccc3)oc12` : CC50 was 12

Short answer for `CC(C)Nc1c(O)cc2oc(-c3ccccc3)cc(=O)c2c1O` : CC50 was 18

Short answer for `CC(C)CCNc1c(O)cc2oc(-c3ccccc3)cc(=O)c2c1O` : CC50 was 16
